measured.target: Adenosine receptor A1 (Homo sapiens)
protocol.notes: Modulation of human adenosine A1 receptor expressed in CHO-K1 cells assessed as allosteric effect on [125I]ABA dissociation
pEC50: −log10 of the molar value.

[
  {
    "line.notation": "CCOC(=O)c1nn(-c2ccc(OC(C)=O)cc2)c(=O)c2c(N)scc12",
    "pEC50": 5.60
  },
  {
    "line.notation": "Cc1sc(N)c(C(=O)c2cccs2)c1C",
    "pEC50": 4.95
  },
  {
    "line.notation": "COc1ccc(-n2nc(C(=O)O)c3csc(N)c3c2=O)cc1",
    "pEC50": 5.59
  },
  {
    "line.notation": "Cc1c(C(=O)Nc2ccccc2)sc(N)c1C(N)=O",
    "pEC50": 5.40
  },
  {
    "line.notation": "CCOC(=O)c1nn(-c2ccc([N+](=O)[O-])cc2)c(=O)c2c(N)scc12",
    "pEC50": 4.89
  }
]

====

measured.target: Adenosine receptor A1 (Homo sapiens) (UniProt P30542)
Sequence (whole entry): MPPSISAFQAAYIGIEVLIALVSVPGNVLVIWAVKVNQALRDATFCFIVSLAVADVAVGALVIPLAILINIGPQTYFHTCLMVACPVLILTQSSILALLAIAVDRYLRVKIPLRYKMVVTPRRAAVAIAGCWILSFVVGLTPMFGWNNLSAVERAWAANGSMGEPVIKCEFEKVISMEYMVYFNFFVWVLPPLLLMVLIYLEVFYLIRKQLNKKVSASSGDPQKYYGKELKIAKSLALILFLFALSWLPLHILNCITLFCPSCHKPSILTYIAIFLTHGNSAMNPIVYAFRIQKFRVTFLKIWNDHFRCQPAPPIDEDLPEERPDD
protocol.notes: Modulation of human adenosine A1 receptor expressed in CHO-K1 cells assessed as stabilization of [125I]ABA-receptor-G protein ternary complex at 50 uM by dissociation kinetic assay
Assay type: cell-based
# reported Activity; entries follow

[
  {
    "line.notation": "Nc1[nH]nc2[nH]c(-c3ccccc3)cc(=O)c12",
    "Activity": "< 5%"
  },
  {
    "line.notation": "COc1cccc(-c2cc3c(c(N)c2C#N)c(=O)oc2ccccc23)c1",
    "Activity": "< 5%"
  },
  {
    "line.notation": "CCOC(=O)c1cn[nH]c1N",
    "Activity": "< 5%"
  }
]
